Target: T1, human CAPRIN-1 protein on human cancer cells (human, UniProt Q14444 2-709)
T1 construct: whole, on cells; Endogenous protein of human cancer cell lines (flow cytometry, ADCC, CDC) and of human tumour tissue sections (immunohistochemistry); also called cytoplasmic- and proliferation-associated protein 1; GPI-anchored membrane protein 1
T1 sequence (looked up): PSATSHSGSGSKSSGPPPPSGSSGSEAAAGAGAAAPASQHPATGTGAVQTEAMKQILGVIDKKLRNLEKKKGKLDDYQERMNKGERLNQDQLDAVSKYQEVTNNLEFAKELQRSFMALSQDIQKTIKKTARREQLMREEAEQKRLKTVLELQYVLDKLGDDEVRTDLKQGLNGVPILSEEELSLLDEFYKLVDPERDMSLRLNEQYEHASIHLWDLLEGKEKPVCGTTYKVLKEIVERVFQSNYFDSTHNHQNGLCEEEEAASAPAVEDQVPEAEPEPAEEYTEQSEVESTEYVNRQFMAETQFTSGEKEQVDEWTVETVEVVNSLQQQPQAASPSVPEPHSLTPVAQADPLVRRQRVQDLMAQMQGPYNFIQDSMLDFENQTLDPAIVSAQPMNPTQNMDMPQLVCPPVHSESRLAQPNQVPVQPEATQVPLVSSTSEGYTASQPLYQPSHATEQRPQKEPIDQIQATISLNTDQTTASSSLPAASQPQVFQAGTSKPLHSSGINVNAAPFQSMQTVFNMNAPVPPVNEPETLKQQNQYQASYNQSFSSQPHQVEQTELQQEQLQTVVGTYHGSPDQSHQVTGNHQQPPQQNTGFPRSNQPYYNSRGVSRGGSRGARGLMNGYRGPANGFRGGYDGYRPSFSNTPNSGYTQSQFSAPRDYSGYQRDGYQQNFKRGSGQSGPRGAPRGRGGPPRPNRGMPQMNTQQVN
Assay: flow cytometry, hybridoma supernatant on human breast cancer, glioma, kidney, gastric, colon, lung cancer and leukemia cell lines; increase in MFI over control
MEASUREMENT KIND: increase in fluorescence intensity over control

BINDER | VALUE
monoclonal antibody #3 against CAPRIN-1 (antibody, V domains shown, Mouse monoclonal antibody from a hybridoma; also called the #3 monoclonal antibody to CAPRIN-1; antibody (c)) VH: EVQLHQFGAELVKPGASVKISCKASGYTFTDYNMDWVKQSHGKSLEWIGDINPNYDSTSYNQKFKGKATLTVDKSSSTAYMELRSLTSEDTAVYYCARSRSYDYEGFAYWGQGTLVTVSA VL: DIQLTQSPASLSASVGETVTITCRASGNIHNYLAWYQQKQGKSPQLLVYNAKTLADGVPSRFSGSGSGTQYSLKINSLQPEDFGSYYCQHFWSTLTFGGGTKLEIK | ≥ 30%
